- System: Fusarium oxysporum
- assay: Antifungal activity against Fusarium oxysporum after 48 hrs by microbroth dilution method
- Type: functional
quantity kind: MIC

Consider the following illustrative entries.
compound: Cc1cc(NC(=O)NC(=O)c2c(F)cccc2F)c(C(C)C)cc1O
quantity kind: MIC
test value: > 512 µg/mL

compound: Cc1cc(NC(=S)NC(=O)c2ccccc2Cl)c(C(C)C)cc1O
quantity kind: MIC
test value: > 512 µg/mL

Value of MIC reported for the molecule Cc1cc(NC(=O)NC(=O)c2ccc(F)cc2)c(C(C)C)cc1O is > 512 µg/mL

The recorded MIC for entry Cc1cc(NC(=O)NC(=O)c2ccccc2Cl)c(C(C)C)cc1O equals 512 µg/mL

====

- Test system: Fusarium oxysporum
- assay: Antifungal activity against Fusarium oxysporum after 48 hrs by microbroth dilution method
- Format: functional
quantity kind: MIC (µg/mL)
Respond with the bare value in µg/mL.

Solved entries (count: 2):
compound: Cc1ccc(C(C)C)cc1O
MIC, µg/mL: 64

compound: Cc1cc(NC(=S)NC(=O)c2ccc(F)cc2)c(C(C)C)cc1O
MIC, µg/mL: 128

Briefly, MIC measured for Cc1cc(NC(=O)NC(=O)c2ccc(Cl)cc2)c(C(C)C)cc1O : 256
